- assay-system: T1, His-Rab6A Q72L (UniProt P20340 1-208, Q72L)
- T1 construct: Rab6A GTPase, GTP-hydrolysis deficient mutant; also called active His-Rab6A; source: purified as described (Aivazian et al., 2006)
- T1 sequence (P20340 whole entry Q72L): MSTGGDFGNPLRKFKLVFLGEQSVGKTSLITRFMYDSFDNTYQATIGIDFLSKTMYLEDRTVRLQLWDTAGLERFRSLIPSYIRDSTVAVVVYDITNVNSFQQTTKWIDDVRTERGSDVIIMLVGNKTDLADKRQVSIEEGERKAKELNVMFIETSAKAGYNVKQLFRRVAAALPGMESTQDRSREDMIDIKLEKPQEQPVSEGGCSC
- procedure-summary: pull-down; concentration dependence: GTPγS-loaded His-Rab6A Q72L (0.58 μM) with GST-KIF1C CBD immobilized on glutathione Sepharose; quantitative fluorescent antibody immunoblot; fit with GraphPad Prism
- assay-context: both partners purified

- binder: "SYPQPPQPYPAQRPPGPRYPPYTTPPRMRRQRSAPDLKESGAAV (domain or fragment, human, UniProt O43896 1060-1103, looked up, the text calls it the C-terminal 40 amino acids; Text says 40 C-terminal residues, the legend AA 1060-1103 (44 residues); source: bacteria, purified (glutathione-Sepharose)) [GST-KIF1C CBD]"
  Kd / nM: 900
